All values here come from PubChem BioAssay AID1851.

tgt: Cytochrome P450 2C19 (Homo sapiens)
measurement.description: Cytochrome panel assay with activity outcomes
measurement.parameters: recombinant CYP, pro-luciferin dealkylation, luminescence, p450-cyp2c19; series mostly up to 57.1 µM
The whole screen tested about 16,000 compounds, of which about 5,800 (36%) were called active. Another 23% or so got no clear call; they are omitted. Some of the results follow.
measured.attribute: AC50

Below, 6 molecules whose answers are already recorded.
Task item: Consider the molecule shown here: `Cc1ccccc1N1C(=O)c2cc(S(N)(=O)=O)c(Cl)cc2N[C@H]1C` What is its recorded AC50?
Reply: inactive

Task item: How about `COc1ccc2[nH]cc(CCNc3ncnc4ccc(-c5ccoc5)cc34)c2c1` ?
Reply: 7.94 µM (active)

Task item: // repeat for `CCOC(=O)Cc1cc(=O)n2[nH]c(C)c(C#N)c2n1` and report
Reply: inactive

Task item: How about this molecule: `COC(=O)N/N=C\C=C\c1ccc2c(c1)OCO2`
Reply: inactive

Task item: Param item: `COc1cccc(Nc2nc(-c3ccc(O)cc3)cs2)c1`
Reply: 2.51 µM (active)

Task item: Note, next up: `O=C(Cn1nc(C(F)F)cc1C(F)F)N/N=C/c1ccc2c(c1)OCO2`
Reply: 1.58 µM (active)

---
Task item: So what does the record say about AC50 for `CC(C)CN1CC[C@@]2(CCCN(C(=O)c3csnn3)C2)C1` ?
Reply: inactive

Task item: // query: `N=C(N)SCCc1ccc(CCSC(=N)N)cc1`
Reply: inactive
